system: α7 integrin (LacZ reporter in α7LacZ+/− myoblasts); experiment: qHTS of the LOPAC library and MLSMR (online screen, α7LacZ+/− myoblasts); conditions: Mus musculus, Myoblast, 48 h, read-out: Activity at 38.30uM [%] **
reported property: activation at 38.3 µM (%)
Give bare numbers, in %.

Worked examples follow.
Measured activation at 38.3 µM of CCc1ccc(N(C(=O)c2snc(C(N)=O)c2N)C(C(=O)NC2CCCC2)c2ccco2)cc1 (centres unmarked) : 67.6

Measured activation at 38.3 µM of `O=C(NC1CCCC1)c1ccc(CS(=O)(=O)Cc2ccccc2F)o1` : 105

Measured activation at 38.3 µM of COc1cccc(N2C(=O)CC(N3CCc4ccccc4C3)C2=O)c1 (centres unmarked) : 95.9

Record activation at 38.3 µM per entry; entries follow.
1. CCOc1ccc2ccccc2c1C1NC(=O)N(C)C(C)=C1C(=O)OCCOC (centres unmarked)
2. CN(Cc1c(C(=O)N/N=C/c2cccc(F)c2)nnn1-c1nonc1N)c1ccccc1

[97, 79.3]
